- PROTOCOL: in vitro
- MEASUREMENT PARAMETERS: human, SK-HEP-1 cells
RECORDED METRIC: viability at 2 h, 6.25 µM (%)
Write the value in % as a bare number.

Documented viability at 2 h, 6.25 µM of OO [H2O2, Hydrogen peroxide] : 32.6

====

- PROTOCOL: in vitro
- MEASUREMENT PARAMETERS: human, SK-HEP-1 cells
RECORDED METRIC: viability at 2 h, 25 µM (%)
Write the value in % as a bare number.

Documented viability at 2 h, 25 µM of OO [H2O2, Hydrogen peroxide] : 3.18

====

- PROTOCOL: in vitro
- MEASUREMENT PARAMETERS: human, SK-HEP-1 cells
RECORDED METRIC: viability at 2 h, 1.562 µM (%)
Write the value in % as a bare number.

Documented viability at 2 h, 1.562 µM of OO [H2O2, Hydrogen peroxide] : 96.4

====

- PROTOCOL: in vitro
- MEASUREMENT PARAMETERS: human, SK-HEP-1 cells
RECORDED METRIC: viability at 2 h, 0.781 µM (%)
Write the value in % as a bare number.

| COMPOUND | viability at 2 h, 0.781 µM, % |
| --- | --- |
| OO [H2O2, Hydrogen peroxide] | 99.4 |

Documented viability at 2 h, 0.781 µM of NC(CCS)C(=O)O (racemic) : 99.8
